Quick reference: growth inhibition of the listed items.
PROTOCOL_NOTES: NCI Yeast Anticancer Drug Screen. Data for the rad50 strain (AID 155);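 further: 0% = growth of vehicle-only cultures of the same strain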
SETTINGS: S. cerevisiae rad50 strain growth inhibition; at 50.0 µM; stronger effect = higher value
The panel holds about 79,000 compounds, 15% with a hit somewhere; the sample as a whole holds those more often.

| COMPOUND | UNIT_TEXT | growth inhibition |
| --- | --- | --- |
| COC(=O)C(=NNc1ccccc1[N+](=O)[O-])C(=O)OC | % | 15.9 |
| CCOC(=O)c1ccc(N=Cc2cccs2)cc1 | % | -1.9 |
| O=S(=O)(O)NNc1ccc(N=Nc2ccccc2)cc1 | % | 0.2 |
| O=C1NC2(O)C(=O)c3ccccc3C2(O)N1 (stereo unspecified) | % | -8.65 |
| NNC(=O)CCSCCC(=O)NN | % | 7.85 |
| COc1nc2[nH]ccc2c(=O)[nH]1 | % | -23.8 |
| CCCCCCCCN(CCCCCCCC)CC(O)c1ccc2cc(Br)c3ccccc3c2c1 (stereo unspecified) | % | 25.9 |
| CC(=O)CC(=O)Nc1cccc(C)n1 | % | -0.4 |
| COc1ccc2c(C)cc(N/N=C(\C)c3cn(C)n(-c4ccccc4)c3=O)nc2c1 | % | -2.25 |
| C=CCN=C1NC(=O)C(CC(=O)Nc2cccc(Cl)c2)S1 (stereo unspecified) | % | -41 |
| O=C1NC(=O)C2(N1)c1ccccc1-c1ccc(Br)cc12 (stereo unspecified) | % | -2.85 |
| N#CC(N)(C(=O)C(=O)NCCCNC(=O)C(=O)C(N)(C#N)c1ccc(Cl)cc1)c1ccc(Cl)cc1 (stereo unspecified) | % | -37 |
| c1ncncn1 | % | 7.5 |
| O=C1c2ccccc2SC[C@@H]2CCCN12 | % | 22.9 |
| O=C(O)c1ccc([N+](=O)[O-])cc1Cl | % | -11.9 |
| CCCCCCCCOC(=O)Nc1ccc(S(=O)(=O)CC)cc1 | % | -3.3 |
| NC(=O)N/N=C/C1CCc2ccccc2C1 (stereo unspecified) | % | 6.45 |
| CC1=CC(=C(C#N)C#N)c2ccccc2N1C | % | 1.1 |
| O=C(CBr)OCCC1CCCCC1 | % | 49.2 |
| CCCCCC(=O)OCCCCCO | % | 13.7 |
| CC(=O)OCC1=COC(OC(=O)CC(C)(C)OC(C)=O)C2C1=CC(OC(=O)CC(C)C)[C@@]21CO1 (stereo partly specified) | % | 14.4 |
| COc1cc(NC=C2C(=O)OC(C)(C)OC2=O)c(OC)c(C)c1OC | % | 1.25 |
| CCO/C=C(/C#N)C(=O)OCC | % | -6.8 |
| Cc1ccccc1NC(=O)CN1CCCC(C)C1 (stereo unspecified) | % | 10.7 |
| COc1ccc(/C=C(\C#N)c2ccccc2NC(C)=O)cc1 | % | 6.9 |
| O=S1c2ccccc2N=C(c2ccc3ccccc3c2)CC1c1ccccc1F (stereo unspecified) | % | -1.1 |

The values you see were collected from PubChem BioAssay (NCI).
